Below: a set of entries, each annotated with reported TGI.
Test system: MALME-3M melanoma
procedure_text: NCI tumour cell line growth inhibition, 48 h

Previously resolved entries follow.
Briefly, TGI measured for `O=c1c2cc(S(=O)(=O)Nc3c(Cl)cccc3Cl)ccc2ncn1NS(=O)(=O)c1ccc2ccccc2c1` : > 62.5 µM

So for `CCOP(=O)(OCC)C(F)(F)Cc1cnc(C)c2c1COC(C)(C)O2` , the logged TGI turned out to be > 10 µM

// TGI lookup, molecule = `COc1ccc(N=CN(C)C)c(C)c1` , result: 54 µM

Field TGI (entry `CC/C(SC)=[N+](\C)[O-]` ) reads > 100 µM

Could you now consider this next molecule?
Data point: COc1ccccc1NC(=O)C(CC(C(=O)Nc1ccccc1OC)/C(C)=N/NC(=O)c1ccccc1O)/C(C)=N/NC(=O)c1ccccc1O (stereo not given) ; TGI = > 100 µM
